experimentalTarget: AF9-DOT1L interaction (Homo sapiens, UniProt P42568)
Construct: cDNA for human AF9 AHD domain (475-568) and ENL AHD domain (489-559) was synthesized; made in house; host or cells: E. coli BL21(DE3)
Sequence (P42568 475-568): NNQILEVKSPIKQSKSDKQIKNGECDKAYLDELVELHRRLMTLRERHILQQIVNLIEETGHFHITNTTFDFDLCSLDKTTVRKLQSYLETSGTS
measurementDescription: Alpha assay, AF9 AHD-DOT1L peptide interaction
Type: binding
assayContext: read-out: IC50, inhibition of AF9-DOT1L interaction
No end group written: not given here.
valueKind: pIC50
Please keep in mind that pIC50 is minus log10 of the molar concentration; only the number is needed.

Provide pIC50, recorded with AF9-DOT1L interaction (Homo sapiens, UniProt P42568), of NKLPVSIPLASVVLPSRAERARST [DOT1L]
7.89
